System: biotinyl-Phe-oxazolone
protocolDescription: self-aminoacylation, catalytic enhancement (BFO) (fold over background); higher = more active; k-Seq, kA / k0A0; sequences stand for … in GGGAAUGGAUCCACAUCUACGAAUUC…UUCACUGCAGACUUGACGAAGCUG
Fewer inactive variants are shown than the library holds.
Collected self-aminoacylation values appear next to each entry.
I only need the number, thanks.

CUUCACCUAGGUCAUCGGGUC [Fam2.2 aminoacylation ribozyme variant]: 3.47
AUUCGCUUAGGUCAUCGGGUG [Fam2.2 aminoacylation ribozyme variant]: 52.5
CCACACUCCAAGCAAUCGGUG [Fam1B.1 aminoacylation ribozyme variant]: 59.9
CCACACUUCGAGUAAUCGGUC [Fam1B.1 aminoacylation ribozyme variant]: 0.641
AUAACCCUGGUCAUCGAGUGU [Fam2.1 aminoacylation ribozyme variant]: 69.6

What value of self-aminoacylation has been reported for the following sequence? AUUACCCUAGGUCAUCGGGUG [Fam2.2 aminoacylation ribozyme variant]
51.7

Now the sequence AAGUUUGCUAACAGUCGCCAG [Fam3.1 aminoacylation ribozyme variant]
1.8

Now the sequence CUAAUUCAAACAAACGGUCUG [Fam1A.1 aminoacylation ribozyme variant]
0.687

Now the sequence CCACCCUUUAAGCAAUCGGUC [Fam1B.1 aminoacylation ribozyme variant]
1.34

Now the sequence CAGUUUGCUAAUAGUCGUAAG [Fam3.1 aminoacylation ribozyme variant]
5.91
